The molecules below each have a reported Ki tested on Sphingosine kinase 1 (Homo sapiens); the values come from various publications.
Sequence (Q9NYA1 whole entry): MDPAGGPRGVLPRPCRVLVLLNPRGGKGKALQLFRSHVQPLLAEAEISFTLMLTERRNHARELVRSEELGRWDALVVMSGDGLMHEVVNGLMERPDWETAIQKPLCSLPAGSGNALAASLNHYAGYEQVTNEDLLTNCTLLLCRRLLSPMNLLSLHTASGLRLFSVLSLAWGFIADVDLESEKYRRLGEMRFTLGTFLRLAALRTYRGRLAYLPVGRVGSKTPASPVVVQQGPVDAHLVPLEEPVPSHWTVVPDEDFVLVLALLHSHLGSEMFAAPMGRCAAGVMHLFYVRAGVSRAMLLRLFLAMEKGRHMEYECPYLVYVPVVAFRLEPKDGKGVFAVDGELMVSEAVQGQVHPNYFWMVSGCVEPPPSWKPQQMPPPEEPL
Express your answer in µM, writing the number without its unit.

[
  {
    "testSmiles": "CCCCCCCCc1ccc([C@H]2CC[C@H]([N+](C)(C)CCC)CC2)cc1",
    "Ki (µM)": 47
  },
  {
    "testSmiles": "Cc1ccc(S(=O)(=O)Nc2ccccc2/C=N/c2ccccc2NS(=O)(=O)c2ccc(C)cc2)cc1",
    "Ki (µM)": 27
  },
  {
    "testSmiles": "CCCCCCCCc1ccc([C@H]2CC[C@H]([N+](C)(C)CCO)CC2)cc1",
    "Ki (µM)": 70
  },
  {
    "testSmiles": "CCCCCCCCc1ccc([C@H]2CC[C@H](N)CC2)cc1",
    "Ki (µM)": 32
  },
  {
    "testSmiles": "CCCCCCCCc1ccc([C@H]2CC[C@H]([N+](C)(C)C)CC2)cc1",
    "Ki (µM)": 60
  }
]

State, for Sphingosine kinase 1 (Homo sapiens), measured Ki of the molecule listed here: CCCCCCCCCCCCc1ccc(C(=O)NC2(C(=N)N)CC2)cc1
0.2

State, for Sphingosine kinase 1 (Homo sapiens), measured Ki of the molecule listed here: N=C(N)[C@@H]1CCCN1C(=O)c1ccc(-c2nc(-c3cccc(CCC4CCCCC4)c3)co2)cc1
0.05
